EC50 overview
EXPERIMENTAL_TARGET: T1, human FLT3 (hFLT3) expressed on cells (human, UniProt P36888 27-993)
T1 construct: whole, on cells; One molecule for all cell lines that carry human FLT3; also called RMA-hFLT3; FLT3 on REH cells
T1 sequence (looked up): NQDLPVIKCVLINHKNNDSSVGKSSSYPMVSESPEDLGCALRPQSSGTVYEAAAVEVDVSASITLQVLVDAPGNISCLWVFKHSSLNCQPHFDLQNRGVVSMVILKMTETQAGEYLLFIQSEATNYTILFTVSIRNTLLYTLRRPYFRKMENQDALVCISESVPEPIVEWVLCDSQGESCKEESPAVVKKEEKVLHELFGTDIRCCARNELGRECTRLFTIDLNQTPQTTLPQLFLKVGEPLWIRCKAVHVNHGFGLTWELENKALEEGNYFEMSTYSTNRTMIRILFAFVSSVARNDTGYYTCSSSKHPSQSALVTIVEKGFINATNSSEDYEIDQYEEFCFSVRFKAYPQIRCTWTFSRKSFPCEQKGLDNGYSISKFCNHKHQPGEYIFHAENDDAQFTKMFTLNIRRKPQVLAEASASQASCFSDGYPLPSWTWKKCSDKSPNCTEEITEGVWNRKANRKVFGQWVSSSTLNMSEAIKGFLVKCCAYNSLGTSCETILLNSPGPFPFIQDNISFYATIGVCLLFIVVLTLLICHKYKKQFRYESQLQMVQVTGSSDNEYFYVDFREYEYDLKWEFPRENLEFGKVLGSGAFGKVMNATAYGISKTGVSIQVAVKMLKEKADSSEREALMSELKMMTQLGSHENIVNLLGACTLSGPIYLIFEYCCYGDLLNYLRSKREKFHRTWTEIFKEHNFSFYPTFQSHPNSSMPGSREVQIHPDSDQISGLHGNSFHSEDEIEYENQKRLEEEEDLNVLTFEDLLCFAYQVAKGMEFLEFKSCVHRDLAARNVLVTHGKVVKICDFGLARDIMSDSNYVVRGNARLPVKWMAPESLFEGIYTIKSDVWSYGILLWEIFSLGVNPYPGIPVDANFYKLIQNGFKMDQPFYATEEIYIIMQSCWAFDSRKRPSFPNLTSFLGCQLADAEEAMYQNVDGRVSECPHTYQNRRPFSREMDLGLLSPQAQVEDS
ASSAY_INFO: flow cytometry, purified mAb on RMA-hFLT3 cells
Record the value in pM, omitting the unit from your answer.

Previously resolved entries follow.
BINDER	EC50 / pM
4H2.E3 (antibody, V domains shown, Purified murine mAb from a hybridoma subclone) VH: EVQLQESGPELVKPGASVKMSCKASGYTFTSYLMHWMKQKPGQGLEWIGYINPYSDGIKYNEKFRDKATLTSDKSSNTAYMELSSLTSEDSAVYYCAHSSGYVGYAMDYWGQGTSVTVSS VL: GIVMTQTTPSVPVTPGESVSISCRSSKSLLHSNGNTYLYWFLQRPGQSPQLLIYRMSNLASGVPDRFSGSGSGTTFTLRISRVEAEDVGVYYCMQHLEYPFTFGSGTKLEIK	660
12H10.G7 (antibody, V domains shown, Purified murine mAb from a hybridoma subclone) VH: EVQLQESGPELVKPGASVKMSCKASGYTFTRYVMHWVKQRPGQGLEWIGFINPYNDDTKYNEKFKGKATLTSDKSSSTAYMELSSLTSEDSAVYHCARWRQLGSLDSWGQGTTLTVSS VL: NIVLTQSPASLAVSLGQRATISCRASESVDTYGSSFVHWYQQKPGQPPKLLIYLASNLESGVPARFSGSGSRSDFTLTIDPVEADDAATYYCQQNNEEPWTFGGGTKLEIK	360

With those in mind, consider the next binder.
**Query** Bench note: what EC50 did 4A4.A3 (antibody, V domains shown, Purified murine mAb from a hybridoma subclone) VH: QVTLKESGPGILQPSQTLSLTCSFSGFSLTTYGMGVGWIRQPSGKGLEWLANIWFNDNKYYNSTLKSRLTISKDTSNNQVFLKISSVDTTDTATYYCAQITTVVGTFDYWGQGSPLTVSP VL: RIVMTQSPTTMAASPGEKITITCSASSSISSIYLHWYQQKPGFSPKLLIFRTSDLASGVPPRFGGSGSGTSYSLTIGTMEAEDVATYYCQQGSSFPRTFGGGTKLEIK show?
**Result** 720
